tested on: 786-0 renal; experiment: NCI tumour cell line growth inhibition, 48 h
PARAMETER: TGI

Sample answers from the record:
# COMPOUND, TARGET OR SYSTEM, TGI
measured = [
    ("COc1ccc2c(=O)c3ccoc3[nH]c2c1", "786-0 renal", "> 100 µM"),
    ("COc1cc(/C=C2\\CCC(C)C3=C2N=c2s/c(=C/c4ccc(Cl)cc4)c(=O)n2C3c2cc(OC)c(OC)c(OC)c2)cc(OC)c1OC (configuration not stated)", "786-0 renal", "> 100 µM"),
    ("COC(=O)CCc1n(Cc2ccc3ccccc3c2)c2ccccc2[n+]1Cc1ccc2ccccc2c1", "786-0 renal", "2.45 µM"),
    ("NCCCN(CCCCN(CCCN)Cc1ccccc1)Cc1ccccc1", "786-0 renal", "77.5 µM"),
    ("CCOc1ccccc1/C=N\\N=C(N/N=C/c1ccccc1OCC)N/N=C/c1ccccc1OCC", "786-0 renal", "> 100 µM"),
]

Recorded TGI (compound COC(=O)C(Cc1nc2ccc(Cl)cc2[nH]c1=O)C(=O)C(=O)Nc1cc(C)ccc1C (configuration not stated) ): > 100 µM

Recorded TGI (compound CC1OC(n2cc(F)c(=O)[nH]c2=O)CCC1=O (configuration not stated) ): > 100 µM

* * *

test system: SK-OV-3 ovarian; experiment: NCI tumour cell line growth inhibition, 48 h
PARAMETER: TGI

Sample answers from the record:
# MOLECULE, TARGET OR SYSTEM, RESULT
records = [
    ("O=C1OC2(c3ccc(O)cc3Oc3cc(O)ccc32)c2cccc3cccc1c23", "SK-OV-3 ovarian", "> 100 µM"),
    ("FC(F)(F)c1ccc2c(-c3cc[nH]c3)ccnc2c1", "SK-OV-3 ovarian", "> 100 µM"),
    ("O=C1C(Cl)C(c2ccccc2Cl)N1n1cnc2ccccc2c1=O (centres undefined)", "SK-OV-3 ovarian", "72.5 µM"),
    ("CCCCCCCCCCCCCCCCc1c(C(=O)OC)nc(NC#N)[nH]c1=O", "SK-OV-3 ovarian", "> 25 µM"),
]

Recorded TGI (molecule CCCCCCCCCCCCc1ccc(S(=O)(=O)O)cc1.[Cu+2] ): 22.8 µM

Recorded TGI (molecule COc1ccc2cc3c4cc(OC)c(OC)cc4ccn3c2c1 ): > 100 µM

Recorded TGI (molecule COc1cccc(/C=C2\CCC(CN(C)C)C2=O)c1 (centres undefined) ): 29.2 µM

* * *

Measured TGI, listed per entry for reference.
test system: SN12C renal; assay: NCI tumour cell line growth inhibition, 48 h

Sample answers from the record:
# COMPOUND, TGI
records = [
    ("COc1ccc2cc3c4cc(OC)c(OC)cc4ccn3c2c1", "> 100 µM"),
    ("Cc1ccc(NC(=O)C2C3C=CC(O3)C2C(=O)O)cc1 (stereo unspecified)", "> 100 µM"),
    ("O=C1CCC2(c3ccc(Cl)cc3)Nc3ccccc3N12 (stereo unspecified)", "> 100 µM"),
]

Recorded TGI (compound CC(C)N(C(=O)C12C3C4C5C3C1(C(=O)O)C5C42)C(C)C (stereo unspecified) ): > 100 µM

Recorded TGI (compound CC(=O)Nc1ccc(S(=O)(=O)c2nnc(NC(C)=O)s2)cc1 ): > 100 µM

Recorded TGI (compound O=C(Nc1ccc(I)cc1F)c1cc(Br)ccc1O ): 4.09 µM
